- assayInfo: Thermodynamic aqueous solubility of the compound in phosphate buffer at pH 7.4
- Assay type: physicochemical
measuredQuantity: solubility thermodynamic (µg/mL)

1: CCCCOc1ccc(-c2c(C)ncc(C(=O)O)c2C)cc1CNC(=O)c1ccc(C(F)(F)F)cc1F
2: CCCCOc1ccc(-c2c(F)ccc(C(=O)O)c2F)cc1CNC(=O)c1ccc(C(F)(F)F)cc1F
## Task For this pair, 1 and 2 , which shows a numerically higher solubility thermodynamic? Write down the label attached to your selection.
## Result 1
(1: 2700 µg/mL, 2: 21.7 µg/mL)

* * *

- assayInfo: Thermodynamic aqueous solubility of the compound in 1:15 M of 50% EtOH and phosphate buffer at pH 7.4
- Format: physicochemical
- testConditions: 50% EtOH and phosphate buffer
measuredQuantity: solubility thermodynamic (µg/mL)

Some solved cases for reference:
CCCCOc1ccc(-c2ccc(C(=O)O)cc2)cc1CNC(=O)c1ccc(C(F)(F)F)cc1F = 375
CCCCOc1ccc(-c2cccc(C(=O)O)c2C)cc1CNC(=O)c1ccc(C(F)(F)F)cc1F = 9950
CCCCOc1ccc(-c2ccc(C(=O)O)cc2F)cc1CNC(=O)c1ccc(C(F)(F)F)cc1F = 3220

P: CCCCOc1ccc(-c2c(C)ncc(C(=O)O)c2C)cc1CNC(=O)c1ccc(C(F)(F)F)cc1F
Q: CCCCOc1ccc(-c2ccc(C(=O)O)cc2C)cc1CNC(=O)c1ccc(C(F)(F)F)cc1F
## Task // max by solubility thermodynamic over [ P , Q ] State your choice using its label.
## Result P
(P: 17700 µg/mL, Q: 985 µg/mL)

* * *

- assayInfo: Thermodynamic aqueous solubility of the compound in phosphate buffer at pH 7.4
- Format: physicochemical
measuredQuantity: solubility thermodynamic

CCCCOc1ccc(-c2ccc(C(=O)O)cc2)cc1CNC(=O)c1ccc(C(F)(F)F)cc1F = < 1 µg/mL
CCCCOc1ccc(-c2ccc(C(=O)O)cc2C)cc1CNC(=O)c1ccc(C(F)(F)F)cc1F = < 1 µg/mL

Now look at this one.
## Task Complete the entry with solubility thermodynamic for `CCCCOc1ccc(-c2cncc(C(=O)O)c2)cc1CNC(=O)c1ccc(C(F)(F)F)cc1F`
## Result 7.62 µg/mL

* * *

- assayTarget: Peroxisome proliferator-activated receptor delta (Homo sapiens)
- Sequence (Q03181 whole entry, the tested form may be a part): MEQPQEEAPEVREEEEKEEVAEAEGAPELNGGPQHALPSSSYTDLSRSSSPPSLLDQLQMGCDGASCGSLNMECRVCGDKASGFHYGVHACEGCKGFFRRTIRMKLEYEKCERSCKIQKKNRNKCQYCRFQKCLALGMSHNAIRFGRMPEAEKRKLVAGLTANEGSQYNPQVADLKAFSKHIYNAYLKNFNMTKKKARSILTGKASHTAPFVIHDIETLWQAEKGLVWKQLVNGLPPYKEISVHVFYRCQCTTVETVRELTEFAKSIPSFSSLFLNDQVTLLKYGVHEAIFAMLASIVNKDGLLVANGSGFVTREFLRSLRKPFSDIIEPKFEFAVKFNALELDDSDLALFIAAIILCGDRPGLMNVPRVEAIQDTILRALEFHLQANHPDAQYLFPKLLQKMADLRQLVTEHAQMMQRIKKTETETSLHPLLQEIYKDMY
- assayInfo: Partial agonist activity at human recombinant PPARdelta LBD expressed in HEK293 cells co-transfected with Gal4 assessed as beta-galactosidase activity by luciferase based transactivation assay
- Assay type: functional, cell-based
pEC50: −log10 of the molar value.
measuredQuantity: pEC50

CCCCOc1ccc(-c2cncc(C(=O)O)c2)cc1CNC(=O)c1ccc(C(F)(F)F)cc1F = 6.66

P: CCCCOc1ccc(-c2c(F)ccc(C(=O)O)c2F)cc1CNC(=O)c1ccc(C(F)(F)F)cc1F
Q: CCCCOc1ccc(-c2c(C)ncc(C(=O)O)c2C)cc1CNC(=O)c1ccc(C(F)(F)F)cc1F
## Task Given P and Q , report the one with the higher recorded pEC50. Response format: the label of the selected entry.
## Result P
(P: 8.24, Q: 7.12)

* * *

- assayInfo: Thermodynamic aqueous solubility of the compound in phosphate buffer at pH 7.4
- Type: physicochemical
solubility thermodynamic overview

Recorded solubility thermodynamic, per entry:
CCCCOc1ccc(-c2cccc(C(=O)O)c2)cc1CNC(=O)c1ccc(C(F)(F)F)cc1F = < 1 µg/mL
CCCCOc1ccc(-c2cccc(C(=O)O)c2C)cc1CNC(=O)c1ccc(C(F)(F)F)cc1F = < 1 µg/mL

Could you now consider this next compound?
## Task Check the records and state solubility thermodynamic for `CCCCOc1ccc(-c2ccc(C(=O)O)cc2F)cc1CNC(=O)c1ccc(C(F)(F)F)cc1F`
## Result < 1 µg/mL
